- ASSAY SUMMARY: Selectivity ratio of IC50 for mouse NIH/3T3 cells to IC50 for human CRL2813 cells
- Assay type: ADME, cell-based
- CONDITION LABEL: NIH/3T3 cells and CRL2813 cells, read-out: Ratio IC50
READOUT TYPE: selectivity ratio
Answers are plain numbers.

Worked examples, 3 compounds total:
[[record]]
smiles_input = "O=C(Nc1ccc(OC(F)(F)F)cc1)N[C@H]1CC[C@H](Oc2ccc(F)cc2)CC1"
value = 5

[[record]]
smiles_input = "O=C(Nc1cccc(C(F)(F)F)c1)N[C@H]1CC[C@H](Oc2ccc(OC(F)(F)F)cc2)CC1"
value = 4.9

[[record]]
smiles_input = "O=C(Nc1cccc(C(F)(F)F)c1)N[C@H]1CC[C@H](Oc2cccc(C(F)(F)F)c2)CC1"
value = 2.5


# evaluate next
Query block: I'd like to know its selectivity ratio. The compound in question is O=C(Nc1cccc(C(F)(F)F)c1)N[C@H]1CC[C@H](Oc2ccc(C(F)(F)F)cc2)CC1
Result block: 7.4

* * *

- ASSAY SUMMARY: Antiproliferative activity against human CRL2813 cells after 3 days by SRB assay in presence of HRI-targeting siRNA
- Type: functional, cell-based
- CONDITION LABEL: CRL2813, 72 h
Binary label based on IC50 with cut-off 10 µM: below gives Fulfilled, not below gives Not fulfilled.

[[record]]
smiles_input = "O=C(Nc1cccc(C(F)(F)F)c1)N[C@H]1CC[C@H](Oc2cccc(C(F)(F)F)c2)CC1"
discrete_label = "Fulfilled"

[[record]]
smiles_input = "O=C(Nc1cccc(C(F)(F)F)c1)N[C@H]1CC[C@H](Oc2ccc(C(F)(F)F)cc2)CC1"
discrete_label = "Fulfilled"

[[record]]
smiles_input = "O=C(Nc1cccc(C(F)(F)F)c1)N[C@H]1CC[C@H](Oc2ccc(OC(F)(F)F)cc2)CC1"
discrete_label = "Fulfilled"


Query block: Is it true that IC50 reported for O=C(Nc1cccc(C(F)(F)F)c1)N[C@H]1CC[C@H](Oc2cccc(F)c2)CC1 is less than 10 µM?
Result block: Not fulfilled

Query block: Quick one: O=C(Nc1cccc(C(F)(F)F)c1)N[C@H]1CC[C@@H](Oc2ccc(F)cc2)CC1
Result block: Not fulfilled

Query block: Now give it for O=C(Nc1cccc(C(F)(F)F)c1)N[C@H]1CC[C@H](Oc2ccccc2F)CC1 too.
Result block: Not fulfilled

* * *

- ASSAY SUMMARY: Cytotoxicity against human CRL2813 cells after 5 days by SRB assay
- Assay type: functional, cell-based
- CONDITION LABEL: CRL2813, 120 h
Provide the reported pIC50 of each item.
Numbers only, as −log10 of the molar value.

Field: example entries. Status: answers known.
[[record]]
compound = "O=C(Nc1cccc(C(F)(F)F)c1)N[C@H]1CC[C@H](OCc2ccc(F)cc2)CC1"
value = 5.58

[[record]]
compound = "COC(=O)c1ccc(NC(=O)N[C@H]2CC[C@H](Oc3ccc(F)cc3)CC2)cc1"
value = 4.94

[[record]]
compound = "O=C(Nc1cccc(C(F)(F)F)c1)N[C@H]1CCCC[C@@H]1Oc1ccc(C(F)(F)F)cc1 (relative stereo)"
value = 5.51

[[record]]
compound = "O=C(Nc1ccccc1F)N[C@H]1CC[C@H](Oc2ccc(F)cc2)CC1"
value = 4.76

[[record]]
compound = "O=C(Nc1cccc(Cl)c1)N[C@H]1CC[C@H](Oc2ccc(F)cc2)CC1"
value = 5.23


Please supply pIC50 for each of the following items, keeping them in order.
1. O=C(Nc1cccc(C(F)(F)F)c1)N[C@H]1CC[C@H](Oc2cccc(F)c2)CC1
2. O=C(Nc1ccc([N+](=O)[O-])cc1)N[C@H]1CC[C@H](Oc2ccc(F)cc2)CC1
3. O=C(Nc1cccc(C(F)(F)F)c1)N[C@H]1CC[C@H](Oc2ccccc2F)CC1
4. O=C(Nc1ccc(C(F)(F)F)cc1)N[C@H]1CC[C@H](Oc2ccc(F)cc2)CC1
5. O=C(Nc1cccc(Br)c1)N[C@H]1CC[C@H](Oc2ccc(F)cc2)CC1
6. Cc1cccc(NC(=O)N[C@H]2CC[C@H](Oc3ccc(F)cc3)CC2)c1
7. O=C(Nc1cccc([N+](=O)[O-])c1)N[C@H]1CC[C@H](Oc2ccc(F)cc2)CC1
8. O=C(Nc1cccc(C(F)(F)F)c1)N[C@H]1CC[C@H](Oc2ccc(Cl)cc2)CC1

Result block:
1. 5.62
2. 5.64
3. 5.61
4. 5.55
5. 5.21
6. 4.84
7. 5.17
8. 5.70

Please report pIC50 for every entry that follows.
1. O=C(Nc1cccc(C(F)(F)F)c1)N[C@H]1CC[C@H](Oc2cccc(C(F)(F)F)c2)CC1
2. O=C(Nc1cccc(C(F)(F)F)c1)N[C@H]1CC[C@@H](Oc2ccc(F)cc2)CC1
3. O=C(Nc1cccc(I)c1)N[C@H]1CC[C@H](Oc2ccc(F)cc2)CC1
4. O=C(Nc1cccc(C(F)(F)F)c1)NC1CCCCC1

Result block:
5.89
5.59
5.28
4.88

Would you mind listing pIC50 for each of the following compounds?
1. O=C(Nc1cccc(C(F)(F)F)c1)N[C@H]1CCC[C@H](Oc2ccc(C(F)(F)F)cc2)C1 (relative stereo)
2. O=C(Nc1ccc(F)cc1)N[C@H]1CC[C@H](Oc2ccc(F)cc2)CC1
3. O=C(Nc1cccc(C(F)(F)F)c1)N[C@H]1CC[C@H](Oc2ccccc2C(F)(F)F)CC1
4. COc1cccc(NC(=O)N[C@H]2CC[C@H](Oc3ccc(F)cc3)CC2)c1
5. O=C(Nc1ccc(OC(F)(F)F)cc1)N[C@H]1CC[C@H](Oc2ccc(F)cc2)CC1
6. O=C(Nc1cccc(F)c1)N[C@H]1CC[C@H](Oc2ccc(F)cc2)CC1

Result block:
1. 5.42
2. 4.70
3. 5.85
4. 4.85
5. 5.57
6. 5.08
